Assign log10 microsomal CLint at 1 uM to each entry below.
experiment: Metabolic stability in human hepatic microsome; format: in vitro ADME; settings: microsomes, pH 7.4; human hepatic microsome, NADPH(+); read-out: CL NADPH(+)
Starred links: 1 amine or outer side, 2 acyl side, 3 side chain; linkers in the order of their positions; H or OH if unused. Positions of bridges follow the written chain, without caps; N, C: chain ends. Non-standard residues stand in square brackets, D forms with d. Residues, ends and D or L forms follow the SMILES beside them. *: point of attachment. Phe(4-CF3) = N[C@@H](Cc1ccc(C(F)(F)F)cc1)C(=O)O; NMePhe(3-Cl) = CN[C@@H](Cc1cccc(Cl)c1)C(=O)O; NMeF = CN[C@@H](Cc1ccccc1)C(=O)O; NMeGABA = CN(CCCC(=O)[*:2])[*:1]; NMeI = CC[C@H](C)[C@H](NC)C(=O)O; hPhe = N[C@@H](CCc1ccccc1)C(=O)O; NMeL = CN[C@@H](CC(C)C)C(=O)O; NMeV = CN[C@H](C(=O)O)C(C)C; NMeA = CN[C@@H](C)C(=O)O; Piperidide = C1CCN(*)CC1; β3hA = C[C@H](N)CC(=O)O; Sar = CNCC(=O)O; tBu = CC(C)(C)*
In plain terms, each number is the log10 of measured microsomal CLint at 1 uM in µL/min/mg.

Example entries and their recorded answers appear below.
CC[C@H](C)[C@@H]1NC(=O)[C@H]([C@@H](C)O)NC(=O)[C@H](Cc2ccccc2)NC(=O)[C@H](CC(C)C)NC(=O)[C@@H](C)NC(=O)C[C@@H](C(=O)N2CCCCC2)NC(=O)[C@H](CC(C)C)NC(=O)[C@H](CC(C)C)N(C)C(=O)[C@H](CC(C)C)NC(=O)CNC(=O)[C@H](Cc2ccccc2)NC1=O [DP-321] ([dA]LFTIFGL[NMeL]LD-Piperidide; lactam N-11)	1.28
CC[C@H](C)[C@@H]1NC(=O)[C@H]([C@@H](C)O)NC(=O)[C@H](C)N(C)C(=O)[C@H](CC(C)C)N(C)C(=O)[C@H](Cc2ccccc2)N(C)C(=O)[C@H](Cc2ccccc2)N(C)C(=O)[C@H](C)N(C)C(=O)[C@H](CC(C)C)N(C)C(=O)[C@@H](C(C)C)NC(=O)C[C@@H](C(=O)N2CCCCC2)NC1=O [DP-172] ([dV][NMeL][NMeA][NMeF][NMeF][NMeL][NMeA]TID-Piperidide; lactam N-10)	1.40
CC(C)C[C@@H]1NC(=O)[C@@H](C(C)C)NC(=O)C[C@H](C)NC(=O)[C@H](CC(C)C)N(C)C(=O)[C@H](Cc2ccccc2)N(C)C(=O)[C@H](CC(C)C)N(C)C(=O)[C@H](Cc2ccc(C(F)(F)F)cc2)NC(=O)[C@H](C)N(C)C(=O)[C@H]([C@@H](C)O)NC1=O [DP-790] (cyclo(LT[NMeA][Phe(4-CF3)][NMeL][NMeF][NMeL][β3hA][dV]))	1.60
CC(C)C[C@@H]1NC(=O)[C@H](CC(C)C)N(C)C(=O)[C@H](C)N(C)C(=O)[C@@H](C(C)C)NC(=O)C[C@@H](C(=O)N2CCCCC2)NC(=O)[C@H](CCC(N)=O)NC(=O)[C@H](CC(C)C)N(C)C(=O)CN(C)C(=O)[C@H](CC(C)C)N(C)C(=O)[C@H](Cc2ccccc2)NC(=O)[C@H](Cc2ccccc2)N(C)C1=O [DP-617] ([dV][NMeA][NMeL]L[NMeF]F[NMeL][Sar][NMeL]QD-Piperidide; lactam N-11)	1.48
CC(C)C[C@H]1C(=O)N[C@@H](COC(C)(C)C)C(=O)N[C@@H](C)CC(=O)N[C@H](C(C)C)C(=O)N(C)[C@@H](Cc2cccc(Cl)c2)C(=O)N(C)[C@@H](C)C(=O)N(C)[C@@H](CC(C)C)C(=O)N[C@@H]([C@@H](C)O)C(=O)N(C)[C@@H](C)C(=O)N1C [DP-801] (cyclo([NMeA][NMeL]S(tBu)[β3hA][dV][NMePhe(3-Cl)][NMeA][NMeL]T))	2.12
CC(C)C[C@H]1C(=O)N[C@@H](COC(C)(C)C)C(=O)N[C@H](C(=O)N2CCCCC2)CC(=O)N(C)[C@@H](C)C(=O)N(C)[C@@H](Cc2ccccc2)C(=O)N(C)[C@@H](CC(C)C)C(=O)N[C@@H]([C@@H](C)O)C(=O)N(C)[C@@H](C)C(=O)N1C [DP-707] ([NMeA][NMeF][NMeL]T[NMeA][NMeL]S(tBu)D-Piperidide; lactam N-8)	1.92
CC[C@H](C)[C@@H]1NC(=O)[C@H](Cc2ccccc2)N(C)C(=O)[C@H]([C@@H](C)O)NC(=O)[C@@H](C)NC(=O)C[C@@H](C(=O)N(C)[C@@H](Cc2ccccc2)C(=O)N[C@@H](C)C(=O)N2CCCCC2)NC(=O)[C@H](CC(C)C)N(C)C(=O)[C@H](CC(C)C)N(C)C(=O)[C@H](Cc2ccccc2)N(C)C(=O)[C@H](CC(C)C)N(C)C(=O)[C@H](C)N(C)C1=O [DP-189] ([dA]T[NMeF]I[NMeA][NMeL][NMeF][NMeL][NMeL]D[NMeF]A-Piperidide; lactam N-10)	0.48
CC[C@H](C)[C@H]1C(=O)N(C)[C@@H](C(C)C)C(=O)N(C)[C@@H](CC(C)C)C(=O)N[C@@H]([C@@H](C)O)C(=O)N[C@H](C(=O)N2CCCCC2)CC(=O)N(C)CCCC(=O)N[C@@H](Cc2ccccc2)C(=O)N(C)[C@@H](CC(C)C)C(=O)N(C)[C@@H](C)C(=O)N(C)[C@@H](Cc2ccccc2)C(=O)N[C@@H](C)C(=O)N1C [DP-250] ([NMeGABA]F[NMeL][NMeA][NMeF]A[NMeI][NMeV][NMeL]TD-Piperidide; lactam N-11)	1.62
CC(C)C[C@@H]1NC(=O)[C@H](CC(C)C)N(C)C(=O)[C@H](CC(C)C)N(C)C(=O)[C@H](C)NC(=O)[C@H](Cc2ccccc2)N(C)C(=O)[C@H](CCC(=O)N(C)C)NC(=O)[C@H](CC(C)C)N(C)C(=O)[C@H](Cc2ccccc2)NC(=O)[C@H](C)NC(=O)C[C@@H](C(=O)N(C)[C@@H](Cc2ccccc2)C(=O)N[C@@H](C)C(=O)N2CCCCC2)NC1=O [DP-603] (AF[NMeL]E(NMe2)[NMeF]A[NMeL][NMeL]LD[NMeF]A-Piperidide; lactam N-10)	1.23

# evaluate next
Q: // log10 microsomal CLint at 1 uM lookup, key: CC[C@H](C)[C@@H]1NC(=O)[C@H](CC(C)C)NC(=O)[C@H](C(C)C)NC(=O)[C@H](CC(C)C)N(C)C(=O)[C@H](CC(C)C)NC(=O)[C@H](CCc2ccccc2)NC(=O)[C@H]([C@@H](C)O)NC(=O)[C@H](C)N(C)C(=O)[C@H](CC(C)C)NC(=O)[C@H](C)N(C)C(=O)C[C@@H](C(=O)N2CCCCC2)NC1=O [DP-728] ([NMeA]L[NMeA]T[hPhe]L[NMeL]VLID-Piperidide; lactam N-11)
A: 1.62

====

assay: PAMPA (parallel artificial membrane permeability assay); format: in vitro ADME; conditions: PAMPA; membrane permeation rate (Pe); 50 mM MOPSO buffer pH 6.5 with 5.0% glycocholic acid, 37° C., 18 hours; read-out: iPAMPA Pe
Starred links: 1 amine or outer side, 2 acyl side, 3 side chain; linkers in the order of their positions; H or OH if unused. Positions of bridges follow the written chain, without caps; N, C: chain ends. Non-standard residues stand in square brackets, D forms with d. Residues, ends and D or L forms follow the SMILES beside them. *: point of attachment. NMePhe(3-Cl) = CN[C@@H](Cc1cccc(Cl)c1)C(=O)O; NMeF = CN[C@@H](Cc1ccccc1)C(=O)O; NMeI = CC[C@H](C)[C@H](NC)C(=O)O; NMeβAla = CN(CCC(=O)[*:2])[*:1]; NMeL = CN[C@@H](CC(C)C)C(=O)O; NMeV = CN[C@H](C(=O)O)C(C)C; NMeA = CN[C@@H](C)C(=O)O; Piperidide = C1CCN(*)CC1; dNMeA = CN[C@H](C)C(=O)O; β3hA = C[C@H](N)CC(=O)O; Sar = CNCC(=O)O; tBu = CC(C)(C)*
READOUT LABEL: Papp at 18 hours, 50 µM
Output should be the measured figure followed by the unit it is expressed in.

CC(C)C[C@H]1C(=O)N[C@@H]([C@@H](C)O)C(=O)N(C)CC(=O)N(C)[C@@H](Cc2ccccc2)C(=O)N(C)[C@@H](CC(C)C)C(=O)N(C)[C@@H](Cc2ccccc2)C(=O)N(C)[C@@H](CC(C)C)C(=O)N[C@@H](C)C(=O)N[C@H](C(=O)N2CCCCC2)CC(=O)N(C)CCC(=O)N(C)[C@@H](C)C(=O)N1C [DP-471] ([NMeβAla][NMeA][NMeL]T[Sar][NMeF][NMeL][NMeF][NMeL]AD-Piperidide; lactam N-11)	21 ×10⁻⁶ cm/s
CC[C@H](C)[C@@H]1NC(=O)[C@H](C(C)C)N(C)C(=O)[C@@H](C)N(C)C(=O)C[C@@H](C(=O)N2CCCCC2)NC(=O)[C@H](CC(C)C)NC(=O)[C@H](Cc2ccccc2)N(C)C(=O)[C@H](CC(C)C)N(C)C(=O)[C@H](Cc2ccccc2)NC(=O)[C@H]([C@@H](C)O)NC(=O)[C@H](CC(C)C)NC1=O [DP-339] ([dNMeA][NMeV]ILTF[NMeL][NMeF]LD-Piperidide; lactam N-10)	18 ×10⁻⁶ cm/s
CC(C)C[C@@H]1NC(=O)[C@H](CC(C)C)N(C)C(=O)[C@H](C)NC(=O)[C@H](C)N(C)C(=O)[C@H]([C@@H](C)O)NC(=O)CN(C)C(=O)[C@H](C(C)C)N(C)C(=O)[C@H](CC(C)C)N(C)C(=O)[C@H](Cc2ccccc2)NC(=O)CN(C)C(=O)C[C@@H](C(=O)N2CCCCC2)NC1=O [DP-167] ([Sar]F[NMeL][NMeV][Sar]T[NMeA]A[NMeL]LD-Piperidide; lactam N-11)	9.5 ×10⁻⁶ cm/s
CC[C@H](C)[C@@H]1NC(=O)[C@H](CC(C)C)N(C)C(=O)[C@H](Cc2cccc(Cl)c2)N(C)C(=O)[C@@H](C(C)C)NC(=O)C[C@H](C)NC(=O)[C@H](CC(C)C)N(C)C(=O)[C@H](C)N(C)C(=O)[C@H]([C@@H](C)O)NC(=O)[C@H](Cc2cccc(Cl)c2)N(C)C(=O)[C@H](C)N(C)C1=O [DP-812] (cyclo(I[NMeA][NMePhe(3-Cl)]T[NMeA][NMeL][β3hA][dV][NMePhe(3-Cl)][NMeL]))	34 ×10⁻⁶ cm/s
CC[C@H](C)[C@H]1C(=O)N[C@@H](CC(C)C)C(=O)N(C)[C@@H](CC(C)C)C(=O)N[C@H](C(=O)N2CCCCC2)CC(=O)N(C)CC(=O)N(C)[C@@H](CC(C)C)C(=O)N[C@@H]([C@@H](C)O)C(=O)N(C)[C@@H](C)C(=O)N[C@@H](C)C(=O)N(C)[C@@H](Cc2ccccc2)C(=O)N(C)[C@@H](Cc2ccccc2)C(=O)N1C [DP-247] ([Sar][NMeL]T[NMeA]A[NMeF][NMeF][NMeI]L[NMeL]D-Piperidide; lactam N-11)	28 ×10⁻⁶ cm/s
CC[C@H](C)[C@@H]1NC(=O)[C@H](Cc2ccccc2)N(C)C(=O)CN(C)C(=O)C[C@@H](C(=O)N2CCCCC2)NC(=O)[C@H](C(C)C)N(C)C(=O)[C@H](COC(C)(C)C)NC(=O)[C@H](CC(C)C)N(C)C(=O)[C@H](Cc2ccccc2)N(C)C(=O)CN(C)C(=O)[C@H]([C@@H](C)O)NC(=O)[C@H](CC(C)C)N(C)C1=O [DP-168] ([Sar][NMeF]I[NMeL]T[Sar][NMeF][NMeL]S(tBu)[NMeV]D-Piperidide; lactam N-11)	23 ×10⁻⁶ cm/s
CC[C@H](C)[C@@H]1NC(=O)[C@H](Cc2ccccc2)N(C)C(=O)[C@@H](C)NC(=O)C[C@@H](C(=O)N(C)[C@@H](Cc2ccccc2)C(=O)N(C)[C@@H](Cc2ccccc2)C(=O)N[C@@H](C)C(=O)N2CCCCC2)NC(=O)[C@H](C(C)C)NC(=O)CN(C)C(=O)[C@H]([C@@H](C)O)NC1=O [DP-569] ([dA][NMeF]IT[Sar]VD[NMeF][NMeF]A-Piperidide; lactam N-7)	21 ×10⁻⁶ cm/s
CC[C@H](C)[C@H]1C(=O)N(C)[C@@H](CC(C)C)C(=O)N[C@@H](Cc2ccccc2)C(=O)N[C@@H]([C@@H](C)O)C(=O)N[C@@H](CC(C)C)C(=O)N(C)[C@@H](Cc2ccccc2)C(=O)N(C)[C@@H](C(C)C)C(=O)N[C@H](C(=O)N(C)CC(=O)N(C)[C@@H](C)C(=O)N(C)[C@@H](CC(C)C)C(=O)N[C@@H](C)C(=O)N2CCCCC2)CC(=O)N[C@H](C)C(=O)N[C@@H](C)C(=O)N1C [DP-670] ([dA]A[NMeI][NMeL]FTL[NMeF][NMeV]D[Sar][NMeA][NMeL]A-Piperidide; lactam N-10)	12 ×10⁻⁶ cm/s

From here, focus on the item given below.
Q: What does the record list as Papp at 18 hours, 50 µM for CC(C)C[C@H]1C(=O)N(C)[C@@H](CC(C)C)C(=O)N[C@@H](C(C)C)C(=O)N[C@H](C(=O)N(C)[C@@H](Cc2ccccc2)C(=O)N(C)[C@@H](Cc2ccccc2)C(=O)N[C@@H](C)C(=O)N2CCCCC2)CC(=O)N(C)CCC(=O)N(C)[C@@H](C)C(=O)N(C)[C@@H](Cc2ccccc2)C(=O)N[C@@H]([C@@H](C)O)C(=O)N(C)CC(=O)N1C [DP-212] ([NMeβAla][NMeA][NMeF]T[Sar][NMeL][NMeL]VD[NMeF][NMeF]A-Piperidide; lactam N-9) ?
A: 29 ×10⁻⁶ cm/s
